# System: rifampin (RMP)-resistant Mtb (SRI 1367)
# protocol.summary: microbe, parasite or virus in culture
# Type: cell-based, Mycobacterium tuberculosis
# experimental.parameters: Mycobacterium tuberculosis, 168 h, read-out: MIC RMP-R, broth microdilution, 7 days at 37 °C
readout.type: MIC (µM)
Field format: number, assumed µM, no unit text.

Examples with their reported MIC follow.
* NNC(=O)c1ccncc1 [INH, Isoniazid, reference compound] | 0.15
* NCC(=O)N1CCN(c2ccc(N3CC(Cn4ccnn4)OC3=O)cc2F)CC1 (stereo not drawn) | 3.6
* O=C(NCC(=O)N1CCN(c2ccc(N3CC(Cn4ccnn4)OC3=O)cc2F)CC1)c1cccnc1 (stereo not drawn) | 0.98
* Cc1cn(CC2CN(c3ccc(N4CCN(C(=O)CNC(=O)c5cc([N+](=O)[O-])cc([N+](=O)[O-])c5)CC4)c(F)c3)C(=O)O2)nn1 (stereo not drawn) | 0.82
* Cc1cn(CC2CN(c3ccc(N4CCN(C(=O)CN)CC4)c(F)c3)C(=O)O2)nn1 (stereo not drawn) | 5.8
* CC(=O)NCC(=O)N1CCN(c2ccc(N3CC(Cn4ccnn4)OC3=O)cc2F)CC1 (stereo not drawn) | 6.7
* CCOC(=O)CC(=O)NCC(=O)N1CCN(c2ccc(N3CC(Cn4ccnn4)OC3=O)cc2F)CC1 (stereo not drawn) | 1.45
* O=C(NCC(=O)N1CCN(c2ccc(N3CC(Cn4ccnn4)OC3=O)cc2F)CC1)c1cc([N+](=O)[O-])cc([N+](=O)[O-])c1 (stereo not drawn) | 0.22

*Q* Please report the measured MIC for Cc1cn(CC2CN(c3ccc(N4CCN(C(=O)CNC(=O)c5cccnc5)CC4)c(F)c3)C(=O)O2)nn1 (stereo not drawn)
*A* 5.7

*Q* Please report the measured MIC for Cc1cn(CC2CN(c3ccc(N4CCN(C(=O)CNC(=O)C(Cl)Cl)CC4)c(F)c3)C(=O)O2)nn1 (stereo not drawn)
*A* 0.95

*Q* Please report the measured MIC for CCOC(=O)CC(=O)NCC(=O)N1CCN(c2ccc(N3CC(Cn4cc(C)nn4)OC3=O)cc2F)CC1 (stereo not drawn)
*A* 2.9

Attribution: paper PMC5748531
